tested on: Human immunodeficiency virus 1; assay: Antiviral activity against HIV1 LAI infected in human CEMx174 cells coexpressing GFP preincubated for 1 hr measured after 5 days by fluorimetry; format: functional, organism-based; conditions: Human immunodeficiency virus 1, LAI
Measurement label: EC50

INSERT INTO results (molecule, observed_result) VALUES
  ('CCC1=C(C(=O)OCC2CCCCC2)[C@@H](c2cccc(O)c2)NC(=O)N1', '> 10 µM'),
  ('CC1=C(C(=O)OCC2CCCCC2)C(c2cccc(O)c2)N(C)C(=O)N1 (configuration not stated)', '> 10 µM');

// batch mode: one EC50 value per listed entry
1. CCOC(=O)C1=C(C)NC(=O)NC1c1cccc(O)c1 (configuration not stated)
2. CC1=C(C(=O)OC2CCCCC2)C(c2cccc(O)c2)NC(=O)N1 (configuration not stated)

1: > 10 µM; 2: > 10 µM

---

Would you mind telling me the reported EC50 of each entry?
test system: Human immunodeficiency virus 1; assay: Antiviral activity against HIV1 LAI infected in human CEMx174 cells coexpressing GFP preincubated for 1 hr measured after 5 days by fluorimetry; type: functional, organism-based; settings: Human immunodeficiency virus 1, LAI

# example entries with known answers
INSERT INTO measurements (molecule, system_under_test, observed_result) VALUES
  ('CC1=C(C(=O)OCC2CCCCC2)[C@@H](c2cccc(O)c2)NC(=O)N1', 'Human immunodeficiency virus 1', '> 10000 nM'),
  ('O=C1NC(C2CC2)=C(C(=O)OCC2CCCCC2)C(c2cccc(O)c2)N1 (stereo not drawn)', 'Human immunodeficiency virus 1', '> 10000 nM'),
  ('CC1=C(C(=O)OCC2CCCCC2)C(c2cccc(O)c2)NC(=O)N1C (stereo not drawn)', 'Human immunodeficiency virus 1', '> 10000 nM'),
  ('CCC1=C(C(=O)OCC2CCCCC2)C(c2ccc(NC(C)=O)cc2)NC(=O)N1 (stereo not drawn)', 'Human immunodeficiency virus 1', '63 nM'),
  ('CCC1=C(C(=O)OCC2CCCCC2)C(c2ccc(Cl)cc2)NC(=O)N1 (stereo not drawn)', 'Human immunodeficiency virus 1', '88 nM'),
  ('CC1=C(C(=O)OCC2CCCCC2)C(c2cccc(O)c2)NC(=S)N1 (stereo not drawn)', 'Human immunodeficiency virus 1', '> 10000 nM');

// batch mode: one EC50 value per listed entry
1. CC1=C(C(=O)O)C(c2cccc(O)c2)NC(=O)N1 (stereo not drawn)
2. C#CC1=C(C(=O)OCC2CCCCC2)C(c2cccc(O)c2)NC(=O)N1 (stereo not drawn)

1: > 10000 nM; 2: 2200 nM
